- test system: Rat Striatal Nicotinic Acetylcholine Receptors (Rattus norvegicus, UniProt P09483+P12390)
- Construct: from tissue; host or cells: rat striatal membranes
- Sequence (P09483 31-630): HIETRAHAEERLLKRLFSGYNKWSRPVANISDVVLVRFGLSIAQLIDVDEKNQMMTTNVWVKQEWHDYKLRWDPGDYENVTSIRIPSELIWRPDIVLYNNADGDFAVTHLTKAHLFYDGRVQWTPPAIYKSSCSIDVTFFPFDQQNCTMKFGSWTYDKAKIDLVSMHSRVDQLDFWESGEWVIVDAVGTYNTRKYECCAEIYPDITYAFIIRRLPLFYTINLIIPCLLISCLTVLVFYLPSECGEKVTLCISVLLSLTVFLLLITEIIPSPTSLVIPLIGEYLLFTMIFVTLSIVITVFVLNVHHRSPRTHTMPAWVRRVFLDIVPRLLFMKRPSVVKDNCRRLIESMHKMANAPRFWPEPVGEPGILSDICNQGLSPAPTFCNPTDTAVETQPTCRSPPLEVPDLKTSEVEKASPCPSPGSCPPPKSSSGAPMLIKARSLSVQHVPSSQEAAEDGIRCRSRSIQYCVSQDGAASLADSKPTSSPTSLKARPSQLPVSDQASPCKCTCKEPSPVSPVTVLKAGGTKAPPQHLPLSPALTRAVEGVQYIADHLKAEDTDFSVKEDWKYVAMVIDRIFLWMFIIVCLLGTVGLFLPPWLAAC
- Sequence (P12390 25-500): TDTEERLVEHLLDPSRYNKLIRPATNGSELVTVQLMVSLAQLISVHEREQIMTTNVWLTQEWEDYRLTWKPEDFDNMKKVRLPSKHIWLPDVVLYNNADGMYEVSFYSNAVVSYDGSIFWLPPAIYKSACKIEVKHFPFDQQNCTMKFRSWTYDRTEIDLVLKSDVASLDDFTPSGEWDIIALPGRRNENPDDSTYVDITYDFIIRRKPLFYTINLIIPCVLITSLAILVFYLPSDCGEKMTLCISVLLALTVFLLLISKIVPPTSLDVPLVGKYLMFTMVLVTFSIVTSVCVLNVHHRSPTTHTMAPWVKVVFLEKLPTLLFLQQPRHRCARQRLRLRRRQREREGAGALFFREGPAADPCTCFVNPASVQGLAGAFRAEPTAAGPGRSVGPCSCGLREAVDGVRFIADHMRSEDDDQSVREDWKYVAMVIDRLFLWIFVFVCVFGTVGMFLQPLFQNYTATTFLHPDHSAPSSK
- experiment notes: [3H]-NIC binding assay, rat striatal membranes
- condition set: 3 nM [3H]-NIC, at least 3 independent experiments, read-out: Ki, displacement of [3H]-NIC binding
Where a name gives a salt, the structure may show the parent alone.
Each item that follows carries a reported log10 of Ki.
Please interpret these as log10 of Ki where Ki is in µM.

CN1CCC[C@H]1c1ccc[n+](CCCCCCC2CCCC2)c1 [NCyNB-5, hydrobromide salt] : 0.74
CCCCC#CCC[n+]1cccc([C@@H]2CCCN2C)c1 [NONB-3y] : -0.70
CCCC/C=C/CC[n+]1cccc([C@@H]2CCCN2C)c1 [NONB-3t, hydrobromide salt] : 0.60
CCCCC/C=C\CCC[n+]1cccc([C@@H]2CCCN2C)c1 [NDNB-4c, hydrobromide salt] : 0.89

Let's switch to this molecule now.
Q: Any idea what log10 of Ki was measured for CN1CCC[C@H]1c1ccc[n+](CCCCCCC2CCC2)c1 [NCyNB-4, hydrobromide salt] ?
A: 0.86
